- assay text: chemical genetic growth profiling, strain panel (AID 1159580);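 further: tested at 20 µM; growth read once vehicle control cultures reached saturation at 30 °C; 1 = growth at the plate median or of vehicle wells; lower values mean less growth of the strain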
- reported conditions: S. cerevisiae deletion strains, growth OD, locus YDR195W, strain ref2
The campaign covered roughly 5,500 compounds. About 2,000 (36%) were called active. Inconclusive results (about 18%) are left out. No stated cut-off is given here; in the data, active means normalized growth mostly below about 0.91 (no sharp cut-off); inconclusive means no clear call, values can overlap the other calls; inactive means mostly above about 0.92. The list shows a part of the results.
One label from this list, please: active, inactive

-- ask Just curious, what result did `CC1(C)S[C@@H]2[C@H](NC(=O)[C@H](N)c3ccccc3)C(=O)N2[C@H]1C(=O)O` get here?
-- reply inactive

###

The compounds listed here are annotated with their normalized growth.
- assay text: chemical genetic growth profiling, strain panel (AID 1159580);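 further: tested at 20 µM; growth read once vehicle control cultures reached saturation at 30 °C; 1 = growth at the plate median or of vehicle wells; lower values mean less growth of the strain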
- reported conditions: S. cerevisiae deletion strains, growth OD, locus YJR066W, strain TOR1, active compounds read low
Out of some 5,500 compounds screened, about 2,000 (36%) were called active. Another 18% or so got no clear call; they are omitted. The list shows a part of the results.
Lab note: record the figure alone, no unit after it.

Illustrative cases are given below, each with its answer.
compound	measured attribute	reported
CC[C@@H](C(=O)C(C)[C@@H](O)[C@H](C)CCc1ccc(C)c(O)c1C(=O)O)C1OC(CC)(C2CC[C@](O)(CC)[C@H](C)O2)C[C@@H]1C (stereo not given in full)	normalized growth	0.928
CCOC(=O)c1ccc2nc(N=CNO)sc2c1	normalized growth	0.995
CN(C)CCOC(c1ccc(Cl)cc1)c1ccccn1 (stereo not given)	normalized growth	0.981
COc1ccc(-c2coc3cc(O)ccc3c2=O)c(O)c1O	normalized growth	0.927

-- ask Identify measured normalized growth associated with `COc1ccc(-c2coc3cc(OC)ccc3c2=O)cc1`
-- reply 0.9
